- method.description: Photophysical characterization of Eu complexes (UV-vis absorption, quantum yield, lifetime)
- Type: physicochemical
- stated.conditions: TBS buffer, pH 7.6
- Description: The europium complexes of ligands 16, 29, 33, 40, and 43 were prepared by separately dissolving each ligand (2 mg) into methanol (200 μL). […] A few drops of these methanolic solutions were evaporated to dryness, and then the residue was dissolved into TBS buffer at a concentration of ca. 3 μM to make aqueous stock solutions (20 mL) with an absorbance of 0.05 (1 cm path length) at 365 nm. […]
observation.type: ε280/ε at λmax

NCCOCCNC(=O)C1CCCN(C(=O)c2cccc(=O)n2[O-])CCCNC(=O)c2ccc(n([O-])c2=O)C(=O)NCCNC(=O)c2ccc(c(=O)n2[O-])C(=O)NCCCN1C(=O)c1cccc(=O)n1[O-].[Eu+3] (stereo not drawn) [33⋅Eu]	1.14
O=C1NCCCN(C(=O)c2cccc(=O)n2[O-])CCCCN(C(=O)c2cccc(=O)n2[O-])CCCNC(=O)c2ccc(n([O-])c2=O)C(=O)NCCNC(=O)c2ccc1c(=O)n2[O-].[Eu+3] [16⋅Eu]	1.12
O=C1NCCCN(C(=O)c2cccc(=O)n2[O-])CCCCN(C(=O)c2cccc(=O)n2[O-])CCCNC(=O)c2ccc(n([O-])c2=O)C(=O)N[C@@H]2COC[C@@H]2NC(=O)c2ccc1c(=O)n2[O-].[Eu+3] [40⋅Eu]	1.19
O=C1NCCCN(C(=O)c2cccc(=O)n2O)CCCCN(C(=O)c2cccc(=O)n2O)CCCNC(=O)c2ccc(n(O)c2=O)C(=O)NCCNC(=O)c2ccc1c(=O)n2O [Compound 16]	1.27
NCCCC[C@H]1CNC(=O)c2ccc(c(=O)n2[O-])C(=O)NCCCN(C(=O)c2cccc(=O)n2[O-])CCCCN(C(=O)c2cccc(=O)n2[O-])CCCNC(=O)c2ccc(n([O-])c2=O)C(=O)N1.[Eu+3] [29⋅Eu]	1.18
NCCOCCNC(=O)C1CCCN(C(=O)c2cccc(=O)n2[O-])CCCNC(=O)c2ccc(n([O-])c2=O)C(=O)NC2COCC2NC(=O)c2ccc(c(=O)n2[O-])C(=O)NCCCN1C(=O)c1cccc(=O)n1[O-].[Eu+3] (mixture of isomers) [43⋅Eu]	1.20
